# Assay Summary: Solubility of the precursor in water
# Assay type: physicochemical

{"Compound": "CC(=O)c1c(Cl)ccc(F)c1Cl [precursor, 1-(2,6-dichloro-3-fluorophenyl)ethanone]", "solubility": "< 2500 µg/mL"}

Hey, just so you know, these numbers are from patent US7465842B2.
